System: OVCAR-5 ovarian
test method notes: NCI-60 one-dose screen, 48 h (100 = growth as untreated, 0 = no growth, -100 = all killed)
run conditions: 10 µM unless noted
The panel holds about 83,000 compounds, 20% with a hit somewhere; the sample as a whole holds those more often.
value type: growth (%)
Could you give me the number in %? Just the number is fine.

Please look at this molecule and report its growth: COc1ccc(-c2cc(-c3ccccc3)c(C#N)c(=O)[nH]2)cc1S(N)(=O)=O 99.3

Please look at this molecule and report its growth: O=C(c1cc2cc(OCCCN3CCC3)ccc2[nH]1)N1C[C@@H](CCl)c2c1cc(OCc1ccccc1)c1ccccc21 -76.9

Please look at this molecule and report its growth: COc1cccc(NC(=O)c2ccc(NC(=O)CCl)s2)c1 47.3

Please look at this molecule and report its growth: Clc1ccc(CNc2nc(SCCN3CCOCC3)nc3c2cnn3CC(Cl)c2ccc(Br)cc2)cc1 (centres undefined) 75.5

Please look at this molecule and report its growth: Cc1ccc(C(=O)Nc2cccc(C(=O)NC(=S)Nc3ccc(S(N)(=O)=O)cc3)c2)cc1 91.5

Please look at this molecule and report its growth: O=C(N/N=C/c1ccc(Cl)cc1)c1ccc(OCc2nc3ccc(Cl)cc3[nH]2)cc1 35.4

Please look at this molecule and report its growth: COc1ccc(/C=C/C(=O)c2ccc(OC)c(S(N)(=O)=O)c2)c(C(F)(F)F)c1 3.65

Please look at this molecule and report its growth: COC(=O)c1cc(C(=O)C(C)(C)C)n2c3ccccc3c3ccccc3c12 98.6

Please look at this molecule and report its growth: CC(=O)c1ccc2c(N)c(C(=O)Nc3ccc(C(F)(F)F)cc3)sc2n1 92.8

====

Test system: IGROV1 ovarian
test method notes: NCI-60 one-dose screen, 48 h
run conditions: 10 µM unless noted
The panel holds about 83,000 compounds, 20% with a hit somewhere; the sample as a whole holds those more often. The source made the active and inactive calls. How the source made its calls: active means growth percent below 10; inactive means the rest.
Output constraint: value belongs to t = active, f = inactive

Identify the outcome logged in this assay for the compound shown: Cc1nn(-c2ccccc2)c2nc(C)n(C(=O)N/N=C/c3ccccc3)c(=O)c12 f

Identify the outcome logged in this assay for the compound shown: C=CC[n+]1cccc2c3ccccc3ccc21 f

Identify the outcome logged in this assay for the compound shown: FC(F)(F)c1cc2c(Cl)ncnc2n1CCN1CCOCC1 t

Identify the outcome logged in this assay for the compound shown: COc1ccc(N=Nc2c(N)nn3c(-c4ccc(F)cc4)ccnc23)cc1 f

Identify the outcome logged in this assay for the compound shown: Nc1nnc(CS(=O)(=O)c2ccccc2)s1 f

Identify the outcome logged in this assay for the compound shown: COc1cc(/C=N/NC(=O)c2ccc(OCc3nc4ccc(C)cc4[nH]3)cc2)cc(OC)c1OC f

Identify the outcome logged in this assay for the compound shown: O=C(Nc1ccc(Cl)c(C(F)(F)F)c1)N1CCN(c2cc(-c3cn(-c4ccccc4)nc3-c3cccc(O)c3)ccn2)CC1 f

Identify the outcome logged in this assay for the compound shown: COc1ccc(NC(=O)CSc2nnc(-c3ccc(-c4nc5ccc(Cl)cc5[nH]4)cc3)o2)cc1 f

Identify the outcome logged in this assay for the compound shown: Nc1nn2c(-c3cc4cc(Br)ccc4oc3=O)ccnc2c1N=Nc1ccc(S(N)(=O)=O)cc1 f

Identify the outcome logged in this assay for the compound shown: N#CC1=C(c2ccco2)Nc2c(c(-c3ccccc3)nn2-c2ccccc2)C12C(=O)Nc1ccc(Br)cc12 (stereo not given) f

====

Could you please report measured growth for the items listed next?
Tested on: OVCAR-5 ovarian
test method notes: NCI-60 one-dose screen, 48 h (100 = growth as untreated, 0 = no growth, -100 = all killed)
run conditions: 10 µM unless noted
About 83,000 compounds went through this panel and 20% of them were active in at least one assay; those are over-represented in the sample as a whole.
Could you give me the number in %? Just the number is fine.

Please look at this compound and report its growth: COc1cc(/C=N/NC(=O)c2ccc(OCc3nc4ccc(C)cc4[nH]3)cc2)cc(OC)c1OC 88

Please look at this compound and report its growth: CCOC(=O)c1ccc(NC(=S)NC(=O)c2ccc(NC(=O)C(C)C)cc2OC)cc1 90.1

Please look at this compound and report its growth: CCCSc1nnc(-c2c(C)nc3sccn23)o1 85.9

====

Test system: HT29 colon
test method notes: NCI-60 one-dose screen, 48 h
run conditions: 10 µM unless noted
The panel holds about 83,000 compounds, 20% with a hit somewhere; the sample as a whole holds those more often. Active and inactive are the calls of the source. The calls were made as follows: active = growth percent below 10; inactive = the rest.
Output constraint: value belongs to 1 = active, -1 = inactive

Identify the outcome logged in this assay for the compound shown: Cc1ccc(-c2cc(C(=O)N=Nc3c(O)[nH]c4ccc(F)cc34)c3ccccc3n2)cc1 -1

Identify the outcome logged in this assay for the compound shown: C/C(=N/O)c1ccc(NC(=O)CSc2nnc(-c3ccc4nc(-c5ccc(Cl)cc5)[nH]c4c3)o2)cc1 -1

Identify the outcome logged in this assay for the compound shown: COc1cc(/C=C/C(=O)c2cnn(-c3cc(=O)[nH]c4ccc(Br)cc34)c2C)cc(OC)c1OC 1

Identify the outcome logged in this assay for the compound shown: COc1c2c(c(Br)c3c1C(CCc1ccccc1)N(C)CC3)OCO2 (stereo not drawn) -1

Identify the outcome logged in this assay for the compound shown: CN1CCN(C(=O)Oc2cc3c(c4ccccc24)[C@H](CCl)CN3C(=O)c2cc3cc(OCCCN4CCC4)ccc3[nH]2)[C@@H]2CSSC[C@H]21 1

Identify the outcome logged in this assay for the compound shown: N#Cc1ccc(C(=O)NNC(=O)CSc2nc3sc4c(c3c(=O)n2-c2ccc(Cl)cc2)CCCC4)cc1 -1

Identify the outcome logged in this assay for the compound shown: COc1cc(C=O)ccc1OC(=O)c1cc(-c2ccc(C)cc2)n(-c2ccc(S(C)(=O)=O)cc2)n1 -1

Identify the outcome logged in this assay for the compound shown: CN1CCN(C(=O)Oc2cc3c(c4ccccc24)[C@H](CCl)CN3C(=O)c2cc3cc(OCCCN4CCC4)ccc3[nH]2)[C@H]2CSSC[C@H]21 1

====

System: M14 melanoma
test method notes: NCI-60 one-dose screen, 48 h
run conditions: 10 µM unless noted
Compounds without any hit were thinned out: in the full panel of roughly 83,000, 20% have a hit. Activity calls are given as the source filed them. How the source made its calls: active means growth percent below 10; inactive means the rest.
Output constraint: value belongs to 1.0 = active, 0.0 = inactive

Identify the outcome logged in this assay for the compound shown: COc1ccc(/C=C/C(=O)c2ccc(S(=O)(=O)NCCNc3nc(N(C)C)nc(N4CCOCC4)n3)cc2)cc1 0.0

Identify the outcome logged in this assay for the compound shown: Cc1ccc(-c2cc(-c3ccccc3)[nH]c(=O)c2C#N)cc1 0.0

Identify the outcome logged in this assay for the compound shown: COc1cc(C2CC(c3ccc(C(F)(F)F)cc3)=Nc3c(N)nc(N)nc3N2)ccc1Oc1nc(Nc2ccc(F)cc2)nc(N(C)C)n1 (centres undefined) 0.0

Identify the outcome logged in this assay for the compound shown: Nc1nn2c(-c3cc4cc(Br)ccc4oc3=O)ccnc2c1N=Nc1ccccc1 0.0

Identify the outcome logged in this assay for the compound shown: C#CCCCNCCNc1ccnc2cc(Cl)ccc12 0.0

Identify the outcome logged in this assay for the compound shown: COc1cc(CNC(=O)C[C@H](C)CCC=C(C)C)ccc1OCc1cn(-c2ccc(Br)cc2)nn1 0.0

Identify the outcome logged in this assay for the compound shown: Cc1cn(-c2cc(NC(=O)c3ccc(C)c(-n4cc(-c5cnc6cccnn56)nn4)c3)cc(C(F)(F)F)c2)cn1 0.0

Identify the outcome logged in this assay for the compound shown: CC1=C(C(=O)Nc2ccccc2)C(c2ccc3ccccc3c2)n2c(nc3ccccc32)N1 (centres undefined) 0.0

Identify the outcome logged in this assay for the compound shown: COc1ccc(NC(=O)Nc2nc3ccc([N+](=O)[O-])cc3s2)cc1 0.0

Identify the outcome logged in this assay for the compound shown: COc1ccc(-c2cc(C(=O)N=Nc3c(O)[nH]c4ccc(Cl)cc34)c3ccccc3n2)cc1OC 0.0

Identify the outcome logged in this assay for the compound shown: CN1C(=O)C(O)(CC(=O)c2cc3ccccc3oc2=O)c2ccccc21 (centres undefined) 0.0

Identify the outcome logged in this assay for the compound shown: CCCN(CCC)S(=O)(=O)c1ccc(C(=O)O)cc1.CCCN(CCC)S(=O)(=O)c1ccc(C(=O)O)cc1.[Cl][Pt+2][Cl].[NH2-].[NH2-] 0.0

Identify the outcome logged in this assay for the compound shown: O=C1NC(=NC23CC4CC(CC(C4)C2)C3)N/C1=C\c1ccc2ncccc2c1 0.0

Identify the outcome logged in this assay for the compound shown: Nc1nnc(CS(=O)(=O)c2ccccc2)s1 0.0

Identify the outcome logged in this assay for the compound shown: Cc1ccc(C2CC(c3ccc(NC(=O)Nc4ccccc4)cc3)=NN2c2ccc(S(C)(=O)=O)cc2)cc1 (centres undefined) 1.0

Identify the outcome logged in this assay for the compound shown: CCc1ccccc1NC(=O)N/C(N)=N/c1nc2ccccc2s1 1.0

Identify the outcome logged in this assay for the compound shown: COc1cc(C2CC(c3ccc(Cl)cc3)=Nc3c(N)nc(N)nc3N2)ccc1Oc1nc(Nc2ccc(F)cc2)nc(N(C)C)n1 (centres undefined) 0.0

Identify the outcome logged in this assay for the compound shown: Cc1ccc(C(=O)Nc2cc(-n3ccnc3C)cc(C(F)(F)F)c2)cc1C#Cc1cnc2cccnn12 1.0

Identify the outcome logged in this assay for the compound shown: Nc1nc2cc(-c3ccc4ncnc(NCc5ccccc5)c4c3)ccc2o1 0.0

Numbers sourced from PubChem BioAssay (NCI).
